- Test system: Radical scavenging activity
- PROTOCOL NOTES: Antioxidant activity assessed as DPPH radical scavenging activity at 0.05 mM after 20 mins
- Format: functional
Activity calls are given as the source filed them. No cut-off for these calls is given here.
MEASURED QUANTITY: Activity

Some solved entries appear below for comparison.
INSERT INTO assay_data (smiles_str, reported) VALUES
  ('Cc1cc2oc(=O)ccc2cc1O', '22%'),
  ('O=c1ccc2cc(O)c3c(c2o1)CCCC3', '35%'),
  ('O=c1ccc2ccc(O)cc2o1', 'inactive'),
  ('Cc1ccc2ccc(=O)oc2c1', 'inactive'),
  ('O=c1ccc2cc(O)c3ccccc3c2o1', '65%');

Please find the next compound below.
Look up Activity for this compound: Cc1c(O)ccc2ccc(=O)oc12
14%
